Listed next: entries and their corresponding normalized growth.
assay: chemical genetic growth profiling, strain panel (AID 1159580);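 further: tested at 20 µM; growth read once vehicle control cultures reached saturation at 30 °C; 1 = growth at the plate median or of vehicle wells; lower values mean less growth of the strain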; conditions: S. cerevisiae deletion strains, growth OD, locus YKR091W, strain srl3, active compounds read low
Hit rate of the full screen: of about 5,500 compounds, about 2,000 (36%) were called active. About 18% were inconclusive and are not listed. This is one part of the list.
Give the figure only, with no unit attached.

Field: example entries. Status: answers known.
{"compound": "COC(=O)C[C@H]1C(C)(C)C(=O)[C@@H]2CC3C4=CC(=O)O[C@@H](c5ccoc5)[C@]4(C)CCC3[C@@]1(C)C2=O (some centres undefined)", "normalized growth": 0.984}
{"compound": "CC(C)CC(N(C)C)C1(c2ccc(Cl)cc2)CCC1 (centres undefined)", "normalized growth": 1.01}
{"compound": "CC1(C)CCC2(C(=O)O)CCC3(C)C(=CCC4C5(C)CCC(O)C(C)(C)C5C(O)CC43C)C2C1 (centres undefined)", "normalized growth": 1.03}

Next up:
Input line: Would you mind telling me what normalized growth value was observed for C[C@H]1[C@H](C)CC[C@]2(CO)CC[C@]3(C)C(=CCC4[C@@]5(C)CC[C@H](O)C(C)(C)C5CC[C@]43C)[C@H]12 (some centres undefined) ?
Output line: 0.988
